Test system: HepG2 (L1.3 5'UTR promoter firefly luciferase reporter)
protocol.text: L1 promoter activity (FLuc/RLuc) relative to DMSO vehicle control (% of control); higher = stronger L1 promoter activation
reported.conditions: concentration (uM unless unit written): 1000; treatment time: 24 h
Assign L1 promoter activity to each entry below.
Would you mind answering with just the numeric figure?

Data point: Cc1cn([C@H]2C[C@H](N=[N+]=[N-])[C@@H](CO)O2)c(=O)[nH]c1=O ; L1 promoter activity = 110

Sample NS(=O)(=O)c1cc(C(=O)O)c(NCc2ccco2)cc1Cl [Furosemide] ; L1 promoter activity observed: 60.4

Noted for CC(C)=CC(=O)C=C(C)C : its L1 promoter activity reads 118

For Nc1nc2c(ncn2COC(CO)CO)c(=O)[nH]1 the compound record lists L1 promoter activity as 104

Lab note: CC(=O)Oc1ccccc1C(=O)O gave L1 promoter activity of 91.3

Data point: ClC(Cl)(Cl)Cl [Carbon tetrachloride] ; L1 promoter activity = 90.7

Please fill in: L1 promoter activity reported for CC(C)Cc1ccc(C(C)C(=O)O)cc1 (stereo not drawn) = 74.9

L1 promoter activity reading for CCOC(=O)C(C)(C)Oc1ccc(Cl)cc1 [Clofibrate] : 132

====

System: HepG2 (L1.3 5'UTR promoter firefly luciferase reporter)
protocol.text: L1 promoter activity (FLuc/RLuc) relative to DMSO vehicle control (% of control); higher = stronger L1 promoter activation
reported.conditions: concentration (uM unless unit written): 3; treatment time: 24 h
I'd be grateful if you could share measured L1 promoter activity for these entries.

Lab book: L1 promoter activity of CCC(C)(C)C(=O)O[C@H]1C[C@@H](C)C=C2C=C[C@H](C)[C@H](CC[C@@H]3C[C@@H](O)CC(=O)O3)[C@H]21 noted as 117

Kindly note the recorded L1 promoter activity for CC(=O)S[C@@H]1CC2=CC(=O)CC[C@]2(C)[C@H]2CC[C@@]3(C)[C@@H](CC[C@@]34CCC(=O)O4)[C@H]12 , which is 100

The recorded L1 promoter activity for c1ccc2c(c1)cc1ccc3cccc4ccc2c1c34 is 187

Recorded L1 promoter activity (molecule CC[C@H](C)C(=O)O[C@H]1CCC=C2C=C[C@H](C)[C@H](CC[C@@H]3C[C@@H](O)CC(=O)O3)[C@H]21 ): 105

Record CC(=O)Oc1ccccc1C(=O)O , field L1 promoter activity: 88.3

====

Test system: HepG2 (L1.3 5'UTR promoter firefly luciferase reporter)
protocol.text: L1 promoter activity (FLuc/RLuc) relative to DMSO vehicle control (% of control); higher = stronger L1 promoter activation
reported.conditions: concentration (uM unless unit written): 250; treatment time: 24 h
Exercise: for every item that follows, state its recorded L1 promoter activity.
Please give the numeric answer without any surrounding text.

Recorded L1 promoter activity for O=C(O)Cc1ccccc1Nc1c(Cl)cccc1Cl [Diclofenac] on HepG2 (L1.3 5'UTR promoter firefly luciferase reporter) was 59.6

Known value: HepG2 (L1.3 5'UTR promoter firefly luciferase reporter) L1 promoter activity of the compound COc1ccc2c(c1)c(CC(=O)O)c(C)n2C(=O)c1ccc(Cl)cc1 [Indometacin] equals 83

Short answer on HepG2 (L1.3 5'UTR promoter firefly luciferase reporter) for CC(C)(C(=O)c1cccnc1)c1cccnc1 [Metyrapone] , L1 promoter activity: 121

L1 promoter activity of NS(=O)(=O)c1cc(C(=O)O)c(NCc2ccco2)cc1Cl [Furosemide] , assay on HepG2 (L1.3 5'UTR promoter firefly luciferase reporter), is 96.2

COS(C)(=O)=O [Methyl methanesulfonate] tested on HepG2 (L1.3 5'UTR promoter firefly luciferase reporter) gave L1 promoter activity: 88.2

Form: item CN(C)CCN(Cc1cccs1)c1ccccn1 [Methapyrilene] ; test system HepG2 (L1.3 5'UTR promoter firefly luciferase reporter); L1 promoter activity: 101

# L1 promoter activity measured on HepG2 (L1.3 5'UTR promoter firefly luciferase reporter) for item COc1ccc2c(c1OC)C(=O)OC2C1c2c(cc3c(c2OC)OCO3)CCN1C [(S,R)-Noscapine] = 33.3

Summary line: CCC1(c2ccc(N)cc2)CCC(=O)NC1=O (stereo not drawn) [Aminoglutethimide] , HepG2 (L1.3 5'UTR promoter firefly luciferase reporter), reported L1 promoter activity = 126

Assay HepG2 (L1.3 5'UTR promoter firefly luciferase reporter), sample Nc1ccn([C@@H]2O[C@H](CO)[C@@H](O)[C@@H]2O)c(=O)n1 [Cytosine arabinoside] , L1 promoter activity read: 105

For the compound CC(C)Cc1ccc(C(C)C(=O)O)cc1 (stereo not drawn) [Ibuprofen] , the measured L1 promoter activity on HepG2 (L1.3 5'UTR promoter firefly luciferase reporter) was 90.8

Record CC(=O)Oc1ccccc1C(=O)O [Acetylsalicylic acid] has HepG2 (L1.3 5'UTR promoter firefly luciferase reporter) L1 promoter activity equal to 105

The measured L1 promoter activity that O=C(O)CC[N+](=O)[O-] [3-Nitropropionic acid] showed for HepG2 (L1.3 5'UTR promoter firefly luciferase reporter) is 94.2

# value of L1 promoter activity, HepG2 (L1.3 5'UTR promoter firefly luciferase reporter), item NS(=O)(=O)c1cc2c(cc1Cl)NC(C(Cl)Cl)NS2(=O)=O (stereo not drawn) [Trichlormethiazide] = 59.6
